tested on: rat primary hippocampal neurons; experiment: Neuroprotective efficacy (NE) against glutamate-induced neurotoxicity over time; type: cell-based; details: 10 nM; glutamate 200 μM
Kindly state Neuroprotective efficacy 2 hours after glutamate exposure for each of the entries shown.

Batch lookup, Neuroprotective efficacy 2 hours after glutamate exposure per entry.
1. C[C@]12CCC3c4ccc(O)cc4C[C@@H](CCCCCCCCCCCCCCCCOCc4ccccc4)C3C1CC[C@@H]2O (some centres unmarked)
2. C[C@]12CCC3c4ccc(O)cc4C[C@@H](CCCCCCCCCCCCCCCCO)C3C1CC[C@@H]2O (some centres unmarked)
3. CC(C)CCC[C@@H](C)CCC[C@@H](C)CCC[C@H](C)CC[C@@H]1Cc2cc(O)ccc2C2CC[C@@]3(C)C(CC[C@@H]3O)C21 (some centres unmarked)
4. CCCCCCCCCCCCCCCC[C@@H]1Cc2cc(O)ccc2C2CC[C@@]3(C)C(CC[C@@H]3O)C21 (some centres unmarked)
5. CC(C)=CCC/C(C)=C/CC/C(C)=C/CC1=C(c2ccc(O)cc2)C(=O)c2ccc(O)cc2C1=O

Outgoing:
55.77%
51.3940%
86.27%
41.8183%
30.96%

====

tested on: rat primary hippocampal neurons; experiment: Neuroprotective efficacy (NE) against glutamate-induced neurotoxicity over time; assay type: cell-based; settings: 100 nM; glutamate 200 μM
Lab note - cut at 70% for Neuroprotective efficacy 2 hours after glutamate exposure: criterion met if strictly below, criterion not met if not.

See these solved cases before continuing.
Incoming: Determine whether this molecule shows Neuroprotective efficacy 2 hours after glutamate exposure lower than 70% (ties excluded): CC(C)CCC[C@@H](C)CCC[C@@H](C)CCC[C@H](C)CC[C@@H]1Cc2cc(O)ccc2C2CC[C@@]3(C)C(CC[C@@H]3O)C21 (some centres unmarked) [NS1-4]
Outgoing: criterion not met

Incoming: I wonder whether CCCCCCCCCCCCCCCC[C@@H]1Cc2cc(O)ccc2C2CC[C@@]3(C)C(CC[C@@H]3O)C21 (some centres unmarked) [NS1-1] has Neuroprotective efficacy 2 hours after glutamate exposure below 70%. Can you tell?
Outgoing: criterion not met

Incoming: Given C[C@]12CCC3c4ccc(O)cc4C[C@@H](CCCCCCCCCCCCCCCCOCc4ccccc4)C3C1CC[C@@H]2O (some centres unmarked) [NS1-3] , is recorded Neuroprotective efficacy 2 hours after glutamate exposure strictly lower than 70%?
Outgoing: criterion not met

Continue with the next molecule.
Incoming: Is Neuroprotective efficacy 2 hours after glutamate exposure of C[C@]12CCC3c4ccc(O)cc4C[C@@H](CCCCCCCCCCCCCCCCO)C3C1CC[C@@H]2O (some centres unmarked) [NS1-2] strictly below 70%?
Outgoing: criterion met

====

molecular target: full-length human ERα (Homo sapiens, UniProt P03372)
Sequence (P03372 whole entry): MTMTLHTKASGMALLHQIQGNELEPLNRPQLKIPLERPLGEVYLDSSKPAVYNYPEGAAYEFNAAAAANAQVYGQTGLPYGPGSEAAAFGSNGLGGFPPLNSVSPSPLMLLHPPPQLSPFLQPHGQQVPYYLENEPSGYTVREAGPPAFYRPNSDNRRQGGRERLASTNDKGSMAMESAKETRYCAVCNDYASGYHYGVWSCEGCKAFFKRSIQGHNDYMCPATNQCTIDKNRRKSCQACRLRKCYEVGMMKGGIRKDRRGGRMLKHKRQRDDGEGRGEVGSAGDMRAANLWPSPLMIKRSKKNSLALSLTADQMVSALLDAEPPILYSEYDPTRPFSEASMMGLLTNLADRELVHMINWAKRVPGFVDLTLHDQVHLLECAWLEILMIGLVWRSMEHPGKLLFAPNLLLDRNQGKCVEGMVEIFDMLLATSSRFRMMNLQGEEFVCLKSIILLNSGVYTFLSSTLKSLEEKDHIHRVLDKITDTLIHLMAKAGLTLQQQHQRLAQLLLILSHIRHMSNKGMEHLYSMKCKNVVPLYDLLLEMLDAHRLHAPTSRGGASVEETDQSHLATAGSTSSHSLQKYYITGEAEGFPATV
QUANTITY_KIND: pIC50
Give bare numbers, as −log10 of the molar value.

Incoming: Annotate the compound CC(C)CCC[C@@H](C)CCC[C@@H](C)CCC[C@@H]1Cc2cc(O)ccc2C2CC[C@@]3(C)C(CC[C@@H]3O)C21 (stereo partly shown) [NS1] with its measured pIC50.
Outgoing: 6.71

Where do the numbers come from? From patent US20080200441A1.
